Source: ChEMBL document CHEMBL1275555

- Tested on: Streptococcus sp. 'group B'
- method description: Antimicrobial activity against Group B streptococcus serotype Ib R3 harboring Q557E, A400V mutations in PBP 2X and T567I, G539E mutations in PBP 2B by broth microdilution method
- Assay type: functional
Listed here: items and their measured MIC.

[
  {
    "compound": "CC1(C)S[C@@H]2[C@H](NC(=O)Cc3ccccc3)C(=O)N2[C@H]1C(=O)O",
    "MIC": "0.5 µg/mL"
  },
  {
    "compound": "CO/N=C(\\C(=O)N[C@@H]1C(=O)N2C(C(=O)[O-])=C(C[N+]3(C)CCCC3)CS[C@H]12)c1csc(N)n1 [CEFEPIME]",
    "MIC": "≤ 0.5 µg/mL"
  },
  {
    "compound": "CN(C)CCn1nnnc1SCC1=C(C(=O)O)N2C(=O)[C@@H](NC(=O)Cc3csc(N)n3)[C@H]2SC1",
    "MIC": "4 µg/mL"
  },
  {
    "compound": "C[C@H]1COc2c(N3CCN(C)CC3)c(F)cc3c(=O)c(C(=O)O)cn1c23.C[C@H]1COc2c(N3CCN(C)CC3)c(F)cc3c(=O)c(C(=O)O)cn1c23.O",
    "MIC": "> 8 µg/mL"
  },
  {
    "compound": "CC1(C)S[C@@H]2[C@H](NC(=O)[C@H](N)c3ccccc3)C(=O)N2[C@H]1C(=O)O",
    "MIC": "0.25 µg/mL"
  },
  {
    "compound": "CN(C)[C@@H]1C(O)=C(C(N)=O)C(=O)[C@@]2(O)C(O)=C3C(=O)c4c(O)cccc4[C@@](C)(O)[C@H]3C[C@@H]12",
    "MIC": "≤ 0.5 µg/mL"
  },
  {
    "compound": "CO/N=C(\\C(=O)N[C@@H]1C(=O)N2C(C(=O)[O-])=C(C[n+]3ccn4ncccc43)CS[C@H]12)c1nsc(N)n1",
    "MIC": "1 µg/mL"
  },
  {
    "compound": "CO/N=C(\\C(=O)N[C@@H]1C(=O)N2C(C(=O)OCOC(=O)C(C)(C)C)=C(/C=C\\c3scnc3C)CS[C@H]12)c1csc(N)n1",
    "MIC": "0.25 µg/mL"
  },
  {
    "compound": "CO/N=C(\\C(=O)N[C@@H]1C(=O)N2C(C(=O)O)=C(COC(C)=O)CS[C@H]12)c1csc(N)n1",
    "MIC": "0.5 µg/mL"
  },
  {
    "compound": "CCC[C@@H]1C[C@@H](C(=O)N[C@@H]([C@H]2O[C@H](SC)[C@H](O)[C@@H](O)[C@H]2O)[C@H](C)Cl)N(C)C1",
    "MIC": "≤ 0.12 µg/mL"
  },
  {
    "compound": "CC[C@H]1OC(=O)[C@H](C)[C@@H](O[C@H]2C[C@@](C)(OC)[C@@H](O)[C@H](C)O2)[C@H](C)[C@@H](O[C@@H]2O[C@H](C)C[C@H](N(C)C)[C@H]2O)[C@](C)(OC)C[C@@H](C)C(=O)[C@H](C)[C@@H](O)[C@]1(C)O",
    "MIC": "≤ 0.12 µg/mL"
  },
  {
    "compound": "C=CC1=C(C(=O)O)N2C(=O)[C@@H](NC(=O)/C(=N\\OCC(=O)O)c3csc(N)n3)[C@H]2SC1",
    "MIC": "> 1 µg/mL"
  },
  {
    "compound": "C[C@@H](O)[C@H]1C(=O)N2C(C(=O)O)=C(S[C@@H]3CN[C@H](C(=O)N(C)C)C3)[C@H](C)[C@H]12",
    "MIC": "0.25 µg/mL"
  },
  {
    "compound": "CC[C@H]1OC(=O)[C@H](C)[C@@H](O[C@H]2C[C@@](C)(OC)[C@@H](O)[C@H](C)O2)[C@H](C)[C@@H](O[C@@H]2O[C@H](C)C[C@H](N(C)C)[C@H]2O)[C@](C)(O)C[C@@H](C)C(=O)[C@H](C)[C@@H](O)[C@]1(C)O",
    "MIC": "≤ 0.12 µg/mL"
  }
]
